- Tested on: Klebsiella pneumoniae KPN+19-15
- Type: cell-based
- Measurement context: Klebsiella pneumoniae KPN 19-15
Bridge positions count the residues as written; N and C are the ends. Square brackets hold non-standard residues; d marks the D form. Peptide text beside a SMILES is read from it. * marks the point of attachment. Heptanoyl(6-Me) = CC(C)CCCCC(=O)*; Octanoyl = CCCCCCCC(=O)*; dDap = NC[C@@H](N)C(=O)O; Dab = NCC[C@H](N)C(=O)O; Dap = NC[C@H](N)C(=O)O
Assay endpoint: MIC

Molecule	Tested target	MIC
CC(C)CCCCC(=O)N[C@@H](CCN)C(=O)N[C@H](C(=O)N[C@@H](CN)C(=O)N[C@H]1CCNC(=O)[C@H]([C@@H](C)O)NC(=O)[C@H](CCN)NC(=O)[C@H](CCN)NC(=O)[C@H]([C@@H](C)O)NC(=O)[C@@H](Cc2ccccc2)NC(=O)[C@H](CCN)NC1=O)[C@@H](C)O [Compound 7] ({Heptanoyl(6-Me)}-[Dab]T[Dap][Dab][Dab][dF]T[Dab][Dab]T; lactam 4-C)	Klebsiella pneumoniae KPN+19-15	≤0.03 µg/mL

Entry under test: CC(C)CCCCC(=O)N[C@@H](CCN)C(=O)N[C@H](C(=O)N[C@H](CN)C(=O)N[C@H]1CCNC(=O)[C@H]([C@@H](C)O)NC(=O)[C@H](CCN)NC(=O)[C@H](CCN)NC(=O)[C@H]([C@@H](C)O)NC(=O)[C@H](Cc2ccccc2)NC(=O)[C@H](CCN)NC1=O)[C@@H](C)O [Compound 102] ({Heptanoyl(6-Me)}-[Dab]T[dDap][Dab][Dab]FT[Dab][Dab]T; lactam 4-C) . Its MIC was >64 µg/mL

Entry under test: CCCCCCCC(=O)N[C@@H](CCN)C(=O)N[C@H](C(=O)N[C@@H](CN)C(=O)N[C@H]1CCNC(=O)[C@H]([C@@H](C)O)NC(=O)[C@H](CCN)NC(=O)[C@H](CCN)NC(=O)[C@H](CC(C)C)NC(=O)[C@@H](Cc2ccccc2)NC(=O)[C@H](CCN)NC1=O)[C@@H](C)O [Compound 38] (Octanoyl-[Dab]T[Dap][Dab][Dab][dF]L[Dab][Dab]T; lactam 4-C) . Its MIC was 0.03 µg/mL
